subject.of.test: CFTR-S549N (Homo sapiens, UniProt P13569, S549N)
Construct: expressed in transfected cells
Sequence (P13569 whole entry S549N): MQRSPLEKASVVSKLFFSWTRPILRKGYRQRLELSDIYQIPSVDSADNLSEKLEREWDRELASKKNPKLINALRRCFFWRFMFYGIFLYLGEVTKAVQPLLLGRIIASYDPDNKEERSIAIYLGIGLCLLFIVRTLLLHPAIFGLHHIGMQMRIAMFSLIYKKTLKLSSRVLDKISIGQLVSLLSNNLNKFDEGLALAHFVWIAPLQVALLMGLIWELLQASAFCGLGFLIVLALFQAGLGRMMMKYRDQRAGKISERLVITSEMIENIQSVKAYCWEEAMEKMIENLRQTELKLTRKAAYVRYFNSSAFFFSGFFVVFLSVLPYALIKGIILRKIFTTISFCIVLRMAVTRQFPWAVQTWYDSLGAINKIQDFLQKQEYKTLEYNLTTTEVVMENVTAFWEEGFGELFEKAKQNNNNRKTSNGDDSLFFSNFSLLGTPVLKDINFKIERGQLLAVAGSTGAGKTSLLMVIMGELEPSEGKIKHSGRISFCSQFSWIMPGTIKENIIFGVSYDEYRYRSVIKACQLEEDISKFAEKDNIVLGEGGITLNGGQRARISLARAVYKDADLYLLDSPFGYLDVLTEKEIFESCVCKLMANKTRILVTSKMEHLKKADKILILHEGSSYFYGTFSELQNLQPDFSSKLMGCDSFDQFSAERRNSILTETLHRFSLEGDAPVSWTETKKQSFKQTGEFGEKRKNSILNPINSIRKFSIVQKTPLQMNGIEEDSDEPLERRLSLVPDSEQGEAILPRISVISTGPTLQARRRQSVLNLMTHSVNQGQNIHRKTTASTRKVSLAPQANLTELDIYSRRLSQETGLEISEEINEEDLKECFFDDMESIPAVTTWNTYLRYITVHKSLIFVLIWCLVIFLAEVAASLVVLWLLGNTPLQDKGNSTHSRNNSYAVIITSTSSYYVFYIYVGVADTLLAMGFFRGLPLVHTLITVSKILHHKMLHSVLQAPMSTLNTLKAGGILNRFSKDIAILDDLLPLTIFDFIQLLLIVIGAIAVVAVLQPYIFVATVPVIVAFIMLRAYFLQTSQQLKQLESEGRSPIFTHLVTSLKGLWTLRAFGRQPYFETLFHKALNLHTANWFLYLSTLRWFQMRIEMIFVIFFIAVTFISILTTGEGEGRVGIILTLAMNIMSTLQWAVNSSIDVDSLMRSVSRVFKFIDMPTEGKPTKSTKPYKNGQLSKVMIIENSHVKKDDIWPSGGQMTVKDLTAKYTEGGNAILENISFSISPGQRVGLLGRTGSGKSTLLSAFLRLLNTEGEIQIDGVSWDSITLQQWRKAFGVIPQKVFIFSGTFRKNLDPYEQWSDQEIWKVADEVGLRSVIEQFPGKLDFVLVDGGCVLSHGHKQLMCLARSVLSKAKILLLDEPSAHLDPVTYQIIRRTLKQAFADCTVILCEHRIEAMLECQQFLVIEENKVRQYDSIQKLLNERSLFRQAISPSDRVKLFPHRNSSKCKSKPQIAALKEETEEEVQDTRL
test.method.notes: YFP-halide influx assay for the CFTR-S549N
Assay type: cell-based
pEC50: −log10 of the molar value.
measured.property: pEC50

[[record]]
compound = "COc1ccc(OC(F)(F)F)c(S(=O)(=O)c2cc(C(N)=O)c(NC(=O)C(C)(C)O)s2)c1 [Compound 373]"
subject_of_test = "CFTR-S549N (Homo sapiens, UniProt P13569, S549N)"
measured_property = "pEC50"
readout_number = 7.15

[[record]]
compound = "CN(Cc1ccccc1)S(=O)(=O)c1cc(C(N)=O)c(NC(=O)c2ccn[nH]2)s1 [Compound 73]"
subject_of_test = "CFTR-S549N (Homo sapiens, UniProt P13569, S549N)"
measured_property = "pEC50"
readout_number = 6.79

[[record]]
compound = "CC(C)(O)C(=O)Nc1sc(S(=O)(=O)c2ccc(OC(F)(F)F)c(F)c2)cc1C(N)=O [Compound 377]"
subject_of_test = "CFTR-S549N (Homo sapiens, UniProt P13569, S549N)"
measured_property = "pEC50"
readout_number = 6.03

[[record]]
compound = "CC(C)(O)C(=O)Nc1sc(S(=O)(=O)c2cc(F)ccc2Cl)cc1C(N)=O [Compound 337]"
subject_of_test = "CFTR-S549N (Homo sapiens, UniProt P13569, S549N)"
measured_property = "pEC50"
readout_number = 6.97


Every entry's value here was drawn from patent US9382254B2.
